- Test system: cyclooxygenase (COX; isoform not resolved, COX1/COX2)
- experimental_details: fluorometric COX peroxidase activity assay (Amplex Red) in BV2 cell lysate
- Assay type: biochemical
Measured IC50, listed per entry.
Numbers only here, please. The scale is nM.

Some compounds with recorded IC50:
>  <compound>
CC(C(=O)O)c1cccc(C(=O)c2ccccc2)c1 (stereo not drawn) [KPF, ketoprofen]

>  <reported_measurement>
850

$$$$
>  <compound>
CC(C(=O)NCCCC[C@H](N)C(=O)O)c1cccc(C(=O)c2ccccc2)c1 (stereo partly drawn) [PD2, pro-drug 2]

>  <reported_measurement>
1050

$$$$

Here's the next entry for you.
Reported IC50 for CC(C(=O)NCC[C@H](N)C(=O)O)c1cccc(C(=O)c2ccccc2)c1 (stereo partly drawn) [PD3, pro-drug 3] was 2260
